Source of measurements: patent US20140088197A1

- experiment-notes: Measurement of water solubility (HPLC, external standard)
- Assay type: physicochemical
- experimental-context: water; read-out: Solubility
recorded-endpoint: solubility (µg/mL)
# value in µg/mL; strip the unit string

## Input Dear colleague, please send me the reported solubility for COc1ccc2cccc(CCNC(C)=O)c2c1 [Crystalline form VI, reference compound] when you can.
## Output 336
